Sourced from paper PMC12428554

Examples of compounds with documented CC50 follow.
- ASSAY TEXT: Sulforhodamine B (SRB) cytotoxicity assay
- Assay type: cell-based
- MEASUREMENT PARAMETERS: human, Huh-7.5 cells
Provide only the numeric value, understood in µM.

Below are worked cases with known answers.
O=[N+]([O-])c1ccc(/C=N/Nc2ccc3cccnc3c2O)cc1 [II]: 8
Oc1c(N/N=C/c2ccc(F)cc2)ccc2cccnc12 [VI]: 7
O=[N+]([O-])c1cccc(/C=N/Nc2ccc3cccnc3c2O)c1 [III]: 7.1
Oc1c(N/N=C/c2ccccc2)ccc2cccnc12 [Compound I]: 59.5
COc1ccc(/C=N/Nc2ccc3cccnc3c2O)cc1 [IV]: 40

Next compound, CC50 to be filled in.
Input Oc1c(N/N=C/c2ccc(Br)c(Br)c2)ccc2cccnc12 [V] , output reported CC50.
6.9

###

Examples of molecules with documented CC50 at 48 h follow.
- ASSAY TEXT: MTT cytotoxicity assay
- Type: cell-based
- MEASUREMENT PARAMETERS: human, Huh-7.5 cells
Provide only the numeric value, understood in µM.

Oc1c(N/N=C/c2ccc(Br)c(Br)c2)ccc2cccnc12 [V]: 120
O=[N+]([O-])c1ccc(/C=N/Nc2ccc3cccnc3c2O)cc1 [II]: 123
O=[N+]([O-])c1cccc(/C=N/Nc2ccc3cccnc3c2O)c1 [III]: 38
COc1ccc(/C=N/Nc2ccc3cccnc3c2O)cc1 [IV]: 47
Oc1c(N/N=C/c2ccccc2)ccc2cccnc12 [Compound I]: 50.5

Next molecule, CC50 at 48 h to be filled in.
Input Oc1c(N/N=C/c2ccc(F)cc2)ccc2cccnc12 [VI] , output reported CC50 at 48 h.
45.5

###

- TARGET: recombinant HIV-1 Integrase (strand transfer) (Human immunodeficiency virus type 1 group M subtype B)
- Construct: The recombinant HIV-1 Integrase (In) was isolated from the Rosetta Escherichia coli producer strain; made in house; host or cells: Escherichia coli Rosetta
- ASSAY TEXT: HIV integrase strand transfer inhibition
- Format: biochemical
- MEASUREMENT PARAMETERS: 100 nM integrase, 37 °C, 2 h
Examples of compounds with documented IC50 follow.
Provide only the numeric value, understood in µM.

Below are worked cases with known answers.
O=[N+]([O-])c1cccc(/C=N/Nc2ccc3cccnc3c2O)c1: 190
COc1ccc(/C=N/Nc2ccc3cccnc3c2O)cc1: 150

Next compound, IC50 to be filled in.
Input Oc1c(N/N=C/c2ccccc2)ccc2cccnc12 , output reported IC50.
160

###

- ASSAY TEXT: Neutral red (NR) cytotoxicity assay
- Assay type: cell-based
- MEASUREMENT PARAMETERS: human, Huh-7.5 cells
Threshold 9 µM: CC50 at 48 h strictly smaller gives true (1), otherwise false (0).

Take a look at these entries with their results.
Oc1c(N/N=C/c2ccc(Br)c(Br)c2)ccc2cccnc12: true (1)
Oc1c(N/N=C/c2ccc(F)cc2)ccc2cccnc12: true (1)
O=[N+]([O-])c1ccc(/C=N/Nc2ccc3cccnc3c2O)cc1: false (0)

I wonder whether O=[N+]([O-])c1cccc(/C=N/Nc2ccc3cccnc3c2O)c1 has CC50 at 48 h below 9 µM. Can you tell?
true (1)

I wonder whether Oc1c(N/N=C/c2ccccc2)ccc2cccnc12 has CC50 at 48 h below 9 µM. Can you tell?
false (0)

###

- ASSAY TEXT: Water solubility and stability of hydrazones and alginate microgels
- Format: physicochemical
- MEASUREMENT PARAMETERS: preliminary studies
OBSERVATION TYPE: solubility

Input Oc1c(N/N=C/c2ccccc2)ccc2cccnc12 [Compound I] , output reported solubility.
~2300 µg/mL

###

- TARGET: Ku70–DNA complex (Homo sapiens)
- Sequence (P12956 whole entry): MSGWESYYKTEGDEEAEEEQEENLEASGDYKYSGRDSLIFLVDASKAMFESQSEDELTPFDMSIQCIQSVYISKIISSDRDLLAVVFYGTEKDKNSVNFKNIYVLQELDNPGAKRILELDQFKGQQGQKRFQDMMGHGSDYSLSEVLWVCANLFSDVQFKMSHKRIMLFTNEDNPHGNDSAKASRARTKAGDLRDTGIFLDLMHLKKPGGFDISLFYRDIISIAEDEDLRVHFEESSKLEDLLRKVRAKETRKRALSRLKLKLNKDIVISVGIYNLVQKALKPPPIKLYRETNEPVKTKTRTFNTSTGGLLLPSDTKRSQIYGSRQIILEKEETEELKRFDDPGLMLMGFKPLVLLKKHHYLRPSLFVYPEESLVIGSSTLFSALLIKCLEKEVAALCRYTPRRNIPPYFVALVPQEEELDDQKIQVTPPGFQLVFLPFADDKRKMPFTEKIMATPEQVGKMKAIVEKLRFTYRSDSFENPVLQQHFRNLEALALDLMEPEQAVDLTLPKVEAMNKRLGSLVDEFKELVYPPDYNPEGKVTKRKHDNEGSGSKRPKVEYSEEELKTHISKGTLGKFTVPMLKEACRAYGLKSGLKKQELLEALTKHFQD
- Sequence (P13010 whole entry partner): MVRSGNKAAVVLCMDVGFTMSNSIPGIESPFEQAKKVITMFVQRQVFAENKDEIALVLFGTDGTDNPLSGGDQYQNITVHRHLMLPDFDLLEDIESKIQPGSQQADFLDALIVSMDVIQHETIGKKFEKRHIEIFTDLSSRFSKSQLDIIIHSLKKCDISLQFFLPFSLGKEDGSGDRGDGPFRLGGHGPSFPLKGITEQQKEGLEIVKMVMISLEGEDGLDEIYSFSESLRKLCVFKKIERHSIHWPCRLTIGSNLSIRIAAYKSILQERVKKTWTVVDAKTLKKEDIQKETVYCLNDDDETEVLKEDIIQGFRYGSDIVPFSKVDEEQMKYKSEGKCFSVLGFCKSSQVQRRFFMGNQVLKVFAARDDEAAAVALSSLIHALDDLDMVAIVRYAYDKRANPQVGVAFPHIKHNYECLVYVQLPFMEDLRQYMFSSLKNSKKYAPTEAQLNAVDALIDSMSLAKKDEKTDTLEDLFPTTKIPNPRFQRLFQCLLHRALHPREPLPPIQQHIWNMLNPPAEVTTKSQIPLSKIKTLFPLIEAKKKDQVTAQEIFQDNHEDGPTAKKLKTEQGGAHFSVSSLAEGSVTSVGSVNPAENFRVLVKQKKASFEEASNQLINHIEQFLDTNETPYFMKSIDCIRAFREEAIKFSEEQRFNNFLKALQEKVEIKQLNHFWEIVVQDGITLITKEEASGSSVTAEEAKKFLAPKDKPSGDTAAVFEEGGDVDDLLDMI
- ASSAY TEXT: EMSA of Ku70/Ku80–DNA complex formation
- MEASUREMENT PARAMETERS: 12.8 nM Ku heterodimer, 4 nM labelled 40 mer DNA duplex, read-out: IC50, inhibition of Ku70–DNA complex formation
OBSERVATION TYPE: pIC50
Note on units: pIC50 is unitless, being -log10 of a concentration expressed in mol/L.

Below are worked cases with known answers.
Oc1c(N/N=C/c2ccc(Br)c(Br)c2)ccc2cccnc12: 4.60
Oc1c(N/N=C/c2ccccc2)ccc2cccnc12: 4.40
O=[N+]([O-])c1cccc(/C=N/Nc2ccc3cccnc3c2O)c1: 4.22
O=[N+]([O-])c1ccc(/C=N/Nc2ccc3cccnc3c2O)cc1: 4.30

Next molecule, pIC50 to be filled in.
Input COc1ccc(/C=N/Nc2ccc3cccnc3c2O)cc1 , output reported pIC50.
4.10

###

- TARGET: recombinant HIV-1 Integrase (strand transfer) (Human immunodeficiency virus type 1 group M subtype B, UniProt P04585)
- Construct: The recombinant HIV-1 Integrase (In) was isolated from the Rosetta Escherichia coli producer strain; made in house; host or cells: Escherichia coli Rosetta
- ASSAY TEXT: HIV integrase strand transfer inhibition
- Assay type: biochemical
OBSERVATION TYPE: inhibition of strand transfer, in words

Below are worked cases with known answers.
O=[N+]([O-])c1cccc(/C=N/Nc2ccc3cccnc3c2O)c1: weak activity
Oc1c(N/N=C/c2ccc(Br)c(Br)c2)ccc2cccnc12: ineffective
O=[N+]([O-])c1ccc(/C=N/Nc2ccc3cccnc3c2O)cc1: ineffective
COc1ccc(/C=N/Nc2ccc3cccnc3c2O)cc1: weak activity

Input Oc1c(N/N=C/c2ccccc2)ccc2cccnc12 , output reported inhibition of strand transfer, in words.
weak activity
